Catalogue of inhibition readings, one per entry.
- TARGET_DESC: Sterol O-acyltransferase 1 (Rattus norvegicus)
- METHOD_SUMMARY: In vitro inhibitory activity against acyl coenzyme A:cholesterol acyltransferase
- Parameters: concentration or dose not given beside the values
- RECORDED_CONDITIONS: concentration not given here

[
  {
    "COMPOUND": "O=C(CCCCCCCCCCOc1ccc(C(=O)O)cc1)Nc1ccc(C(=O)O)cc1",
    "VALUE_UNITS": "%",
    "RESULT_OPERATOR": "<",
    "inhibition": 33
  },
  {
    "COMPOUND": "O=C(O)CNc1ccc(C(=O)O)cc1",
    "VALUE_UNITS": "%",
    "RESULT_OPERATOR": "=",
    "inhibition": 18
  },
  {
    "COMPOUND": "CCCC(Nc1ccc(C(=O)O)cc1)C(=O)O (configuration not stated)",
    "VALUE_UNITS": "%",
    "RESULT_OPERATOR": "=",
    "inhibition": 0
  },
  {
    "COMPOUND": "N#CCCCNc1ccc(C(=O)O)cc1",
    "VALUE_UNITS": "%",
    "RESULT_OPERATOR": "=",
    "inhibition": 8
  },
  {
    "COMPOUND": "O=C(O)CCCNc1ccc(C(=O)O)cc1",
    "VALUE_UNITS": "%",
    "RESULT_OPERATOR": "=",
    "inhibition": 0
  },
  {
    "COMPOUND": "CC(C)(C)CCCCCCCCCCCCCCNc1ccc(C(=O)O)cc1",
    "VALUE_UNITS": "%",
    "RESULT_OPERATOR": "<",
    "inhibition": 74
  },
  {
    "COMPOUND": "Br.CCOC(=O)c1ccc(NC(=O)CCCCCCCCCCSC(=N)N)cc1",
    "VALUE_UNITS": "%",
    "RESULT_OPERATOR": "<",
    "inhibition": 91
  },
  {
    "COMPOUND": "COC(=O)c1ccc(NC(=O)CCCCCCCCCCOc2ccc(C(=O)OC)cc2)cc1",
    "VALUE_UNITS": "%",
    "RESULT_OPERATOR": "<",
    "inhibition": 63
  },
  {
    "COMPOUND": "CCOC(=O)c1ccc(NCCC[Si](C)(C)C)cc1",
    "VALUE_UNITS": "%",
    "RESULT_OPERATOR": "<",
    "inhibition": 59
  },
  {
    "COMPOUND": "CCCCCCCCCCC(C)(O)CCCCCNc1ccc(C(=O)O)cc1 (configuration not stated)",
    "VALUE_UNITS": "%",
    "RESULT_OPERATOR": "<",
    "inhibition": 53
  },
  {
    "COMPOUND": "CCOC(=O)CCCCCNc1ccc(C(=O)OCC)cc1",
    "VALUE_UNITS": "%",
    "RESULT_OPERATOR": "=",
    "inhibition": 18
  },
  {
    "COMPOUND": "CCCCCCCCCCCCCCC(C)Nc1ccc(C(=O)OCC)cc1 (configuration not stated)",
    "VALUE_UNITS": "%",
    "RESULT_OPERATOR": "<",
    "inhibition": 18
  }
]
